Source of measurements: ChEMBL document CHEMBL1137708

Assay: Inhibition of SDS-activated 20S proteasome activity in rabbit muscle
Assay type: tissue-based, Oryctolagus cuniculus, Muscle tissue

{"COMPOUND": "CC(C)CC(NC(=O)[C@H](Cc1cccc2ccccc12)NC(=O)OCc1ccccc1)B1O[C@@H]2[C@H]3C[C@@H](C[C@]2(C)O1)C3(C)C (single isomer, unassigned)", "pKi": 10}
{"COMPOUND": "CC(C)C[C@H](NC(=O)[C@H](Cc1ccccc1)NC(=O)c1ccc2ccccc2n1)B(O)O", "pKi": 9.72}
{"COMPOUND": "CC(C)C[C@H](NC(=O)[C@H](Cc1cccc2ccccc12)NC(=O)c1ccccc1)B(O)O", "pKi": 10.06}
{"COMPOUND": "CN[C@@H](Cc1cccc2ccccc12)C(=O)N[C@@H](CC(C)C)B(O)O", "pKi": 8.96}
{"COMPOUND": "B[C@H](CC(C)C)NC(=O)[C@H](Cc1cccc2ccccc12)NC(=O)N1CCOCC1", "pKi": 8.7}
{"COMPOUND": "CC(C)C[C@H](NC(=O)[C@@H](N)Cc1ccccn1)B(O)O", "pKi": 7.5}
{"COMPOUND": "CC(C)C[C@H](NC(=O)[C@H](Cc1cccc2ccccc12)NC(=O)c1cnc2ccccc2n1)B(O)O", "pKi": 9.85}
{"COMPOUND": "CC(=O)N[C@@H](Cc1c[nH]c2ccccc12)C(=O)N[C@@H](CC(C)C)B(O)O", "pKi": 8.89}
{"COMPOUND": "CC(C)C[C@H](NC(=O)[C@H](Cc1ccccc1)NC(=O)c1cnccn1)B(O)O", "pKi": 9.22}
{"COMPOUND": "CC(C)C[C@H](NC(=O)[C@H](Cc1ccc(F)cc1)NC(=O)c1cnccn1)B(O)O", "pKi": 9.02}
{"COMPOUND": "CC(C)C[C@H](NC(=O)[C@@H](N)Cc1cccnc1)B(O)O", "pKi": 6.82}
{"COMPOUND": "CC(C)C[C@H](NC(=O)[C@H](Cc1ccccn1)NC(=O)c1ccc2ccccc2n1)B(O)O", "pKi": 8.85}
{"COMPOUND": "CC(C)C[C@H](NC(=O)[C@H](Cc1ccccn1)NC(=O)C1CCCCC1)B(O)O", "pKi": 8.96}
{"COMPOUND": "CC(C)C[C@H](NC(=O)[C@H](Cc1ccccn1)NC(=O)N1CCOCC1)B(O)O", "pKi": 8.2}
{"COMPOUND": "CC(C)C[C@H](NC(=O)[C@H](Cc1ccccn1)NC(=O)c1ccccc1)B(O)O", "pKi": 9.12}
{"COMPOUND": "CC(C)C[C@H](NC(=O)[C@H](Cc1ccccc1)NS(=O)(=O)c1cccc2cccnc12)B(O)O", "pKi": 8.36}
{"COMPOUND": "CC(C)C[C@H](NC(=O)[C@H](CC(C)C)N(C)C(=O)OCc1ccccc1)B(O)O", "pKi": 6}
{"COMPOUND": "CC(=O)N[C@@H](Cc1cccnc1)C(=O)N[C@@H](CC(C)C)B(O)O", "pKi": 8.27}
{"COMPOUND": "CC(C)C[C@H](NC(=O)[C@H](Cc1ccccc1)NC(=O)c1cccnc1)B(O)O", "pKi": 9.6}
{"COMPOUND": "CC(C)C[C@H](NC(=O)[C@H](Cc1ccccn1)NS(=O)(=O)c1cccc2cccnc12)B(O)O", "pKi": 7.54}
{"COMPOUND": "CB(C)[C@H](CC(C)C)NC(=O)[C@H](CCc1ccccc1)NC(=O)c1ccc2ccccc2n1", "pKi": 8.55}
{"COMPOUND": "CC(C)C[C@H](NC(=O)[C@H](Cc1ccccc1)NC(=O)OCc1ccccc1)B(O)O", "pKi": 9.89}
{"COMPOUND": "CB(O)[C@H](CC(C)C)NC(=O)[C@H](Cc1cccc2ccccc12)NC(=O)N1CCOCC1", "pKi": 7}
{"COMPOUND": "CC(C)C[C@H](NC(=O)[C@H](Cc1ccccn1)NC(=O)c1cnccn1)B(O)O", "pKi": 8.15}
{"COMPOUND": "CC(C)CC(NC(=O)[C@H](Cc1ccc(F)cc1)NC(=O)c1ccccn1)B(O)O (single isomer, unassigned)", "pKi": 9.08}
{"COMPOUND": "CC(C)C[C@H](NC(=O)[C@H](Cc1ccc(O)cc1)NC(=O)N1CCOCC1)B(O)O", "pKi": 9.29}
{"COMPOUND": "CC(C)C[C@H](NC(=O)[C@H](Cc1cccc2ccccc12)N(C)C(=O)OCc1ccccc1)B(O)O", "pKi": 9.02}
{"COMPOUND": "CB(C)[C@H](CC(C)C)NC(=O)[C@H](Cc1cccc2ccccc12)NC(=O)N1CCOCC1", "pKi": 6.19}
{"COMPOUND": "CC(=O)N[C@@H](Cc1cccc2ccccc12)C(=O)N[C@@H](CC(C)C)B(O)O", "pKi": 9.77}
{"COMPOUND": "Cc1ccc(S(=O)(=O)N[C@@H](Cc2cccc3ccccc23)C(=O)N[C@@H](CC(C)C)B(O)O)cc1", "pKi": 9.77}
{"COMPOUND": "CC(C)C[C@H](NC(=O)[C@H](Cc1ccccc1)NC(=O)c1cc[nH]c1)B(O)O", "pKi": 9.85}
{"COMPOUND": "CC(C)C[C@H](NC(=O)[C@H](Cc1ccccc1)NC(=O)NCc1ccccc1)B(O)O", "pKi": 9.85}
{"COMPOUND": "CC(C)C[C@H](NC(=O)[C@H](Cc1ccc2ncccc2c1)NC(=O)N1CCOCC1)B(O)O", "pKi": 8.22}
{"COMPOUND": "CC(C)C[C@@H](NC(=O)[C@H](N)Cc1cccc2ccccc12)B(O)O.Cl (single isomer, unassigned)", "pKi": 8.41}
{"COMPOUND": "CC(C)C[C@H](NC(=O)[C@H](Cc1ccc(OCc2ccccn2)cc1)NC(=O)N1CCOCC1)B(O)O", "pKi": 9.7}
{"COMPOUND": "CC(C)C[C@H](NC(=O)[C@H](Cc1cccc2ccccc12)NC(=O)c1ccc2ccccc2n1)B(O)O", "pKi": 10.12}
